- target-entity: T1, human CD24 protein (ACRO) (human, UniProt P25063 27-59)
- T1 construct: also called analyte human CD24 protein
- T1 chain (looked up): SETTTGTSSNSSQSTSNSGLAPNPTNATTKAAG
- assay-name: BLI (ForteBio Octet RED96e), antibody immobilised, human CD24 protein as analyte
Below is a list of entries, each paired with its recorded pKd value.
Please report pKd as the negative decimal logarithm of the molar concentration, giving only the number.

Answered examples (4):
binder	pKd
humanized antibody hu-01-L1H2 (antibody, human IgG1, kappa, V domains shown, Humanized from ms-01: light chain L1, heavy chain H2) VH: QVQLVQSGSELKKPGASVKVSCKASGYIFTDYAIHWVRQAPGQGLEWMGFINTATGEPTYADDFKGRFVFSLDTSVSTAYLQISSLKAEDTAVYFCTSGVHWGQGTLVTVSS VL: DIQMTQSPSTLSASVGDRVTITCSASSSVSSMHWYQQKPGKAPKLLIYSTSNLASGVPSRFSGSGSGTEFTLTISSLQPDDFATYYCHHWTSYMYTFGGGTKVEIKR	8.25
humanized antibody hu-02-L1H1 (antibody, human IgG1, kappa, V domains shown, Humanized from ms-02: light chain L1, heavy chain H1) VH: QVQLQESGPGLVKPSQTLSLTCTVSGYSITSGYTWHWIRQHPGKGLEWIGHIQYTGNTKYNPSLESRVTISVDTSKNQFSLKLSSVTAADTAVYYCARGSTNSNDYWGQGTLVTVSS VL: DIVMTQSPDSLAVSLGERATINCKSSQSLLYSNDQKNYLAWYQQKPGQPPKLLIYWASTRESGVPDRFSGSGSGTDFTLTISSLQAEDVAVYYCQQYFIYPLTFGGGTKLELKR	7.20
humanized antibody hu-01-L2H4 (antibody, human IgG1, kappa, V domains shown, Humanized from ms-01: light chain L2, heavy chain H4) VH: QVQLVQSGSELKKPGASVKVSCKASGYIFTDYAIHWVKQAPGQGLKWMGFINTATGEPTYADDFKGRFVFSLDTSVSTAYLQISSLKAEDTAVYFCTSGVHWGQGTLVTVSS VL: DIQMTQSPSTLSASVGDRVTITCSASSSVSSMHWYQQKPGKAPKLLIYSTSNLASGVPSRFSGSGSGTEYTLTISSLQPDDFATYYCHHWTSYMYTFGGGTKVEIKR	7.41
humanized antibody hu-01-L2H2 (antibody, human IgG1, kappa, V domains shown, Humanized from ms-01: light chain L2, heavy chain H2) VH: QVQLVQSGSELKKPGASVKVSCKASGYIFTDYAIHWVRQAPGQGLEWMGFINTATGEPTYADDFKGRFVFSLDTSVSTAYLQISSLKAEDTAVYFCTSGVHWGQGTLVTVSS VL: DIQMTQSPSTLSASVGDRVTITCSASSSVSSMHWYQQKPGKAPKLLIYSTSNLASGVPSRFSGSGSGTEYTLTISSLQPDDFATYYCHHWTSYMYTFGGGTKVEIKR	7.98

Here is the next item to consider.
Task: Respond only with pKd recorded for chimeric antibody CH-02 (antibody, human IgG1, kappa, V domains shown, ms-02 variable regions on a human IgG framework, expressed in CHO cells) VH: EVQLQESGPDLVKPSQSLSLTCTVTGYSITSGYTWHWIRQFPGNKLEWMGHIQYTGNTKYNPSLESRISITRETSKNQFFLQLNSVTTEDTGTYYCARGSTNSNDYWGQGTSVTVSS VL: DIVMTQSPSSLAVSVGEKVTVSCKSSQSLLYSNDQKNYLAWYQQKPGQSPKLLIYWASTRESGVPDRFTGSGSGTDFTLTITSVKAEDLAVYYCQQYFIYPLTFGAGTKLELKR
Output: 7.92
